- assayTarget: BRAF V600E (Homo sapiens, UniProt P15056, V600E)
- Construct: expressed in transfected cells
- Sequence (P15056 whole entry V600E): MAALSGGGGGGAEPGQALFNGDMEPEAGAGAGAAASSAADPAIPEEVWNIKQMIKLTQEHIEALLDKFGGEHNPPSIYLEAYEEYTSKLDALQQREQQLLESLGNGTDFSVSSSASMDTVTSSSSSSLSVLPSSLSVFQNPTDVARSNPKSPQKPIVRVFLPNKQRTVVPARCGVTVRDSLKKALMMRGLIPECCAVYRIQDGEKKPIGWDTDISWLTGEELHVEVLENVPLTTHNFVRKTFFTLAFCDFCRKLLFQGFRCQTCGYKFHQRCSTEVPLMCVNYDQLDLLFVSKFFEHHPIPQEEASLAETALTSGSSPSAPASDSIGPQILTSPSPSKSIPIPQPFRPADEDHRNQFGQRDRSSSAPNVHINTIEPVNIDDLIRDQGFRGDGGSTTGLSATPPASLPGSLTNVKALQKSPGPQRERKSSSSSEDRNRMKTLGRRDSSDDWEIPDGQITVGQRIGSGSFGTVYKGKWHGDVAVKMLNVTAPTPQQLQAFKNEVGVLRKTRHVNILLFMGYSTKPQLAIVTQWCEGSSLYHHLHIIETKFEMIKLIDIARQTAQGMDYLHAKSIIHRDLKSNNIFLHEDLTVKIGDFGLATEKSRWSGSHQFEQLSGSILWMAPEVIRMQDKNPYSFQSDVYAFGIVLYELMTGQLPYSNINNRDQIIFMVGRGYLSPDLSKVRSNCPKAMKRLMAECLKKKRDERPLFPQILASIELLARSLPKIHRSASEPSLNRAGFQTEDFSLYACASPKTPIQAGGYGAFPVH
- experiment: Cellular assay of target protein degradation, T-Rex 293 cells stably transfected with HA-BRAF_V600E (HA immunofluorescence, high content imaging)
- Assay type: cell-based
- experimentalContext: half maximal degradation, T-Rex 293 HA-BRAF V600E; read-out: BRaf V600E DC50
assayMetric: DC50

[[record]]
compound = "O=C1CC[C@@H](N2Cc3cc(/C=C/CN4CC5(C4)CN(c4ccc(-c6cnc7[nH]cc(C(=O)c8c(F)ccc(NS(=O)(=O)N9CC[C@@H](F)C9)c8F)c7c6)cc4)C5)ccc3C2=O)C(=O)N1"
assaymetric = "DC50"
experimentalvalue = "5 to 50 nM"

[[record]]
compound = "O=C1CCC(N2Cc3cc(C4CCN(CC5(O)CCN(c6ccc(-c7cnc8[nH]cc(C(=O)c9c(F)ccc(NS(=O)(=O)N%10CC[C@@H](F)C%10)c9F)c8c7)cc6)CC5)CC4)ccc3C2=O)C(=O)N1 (stereo partly drawn)"
assaymetric = "DC50"
experimentalvalue = "< 5 nM"

[[record]]
compound = "O=C1CCC(N2Cc3cc(N4CCC(O)(CN5CC6(C5)CN(c5ccc(-c7cnc8[nH]cc(C(=O)c9c(F)ccc(NS(=O)(=O)N%10CC[C@@H](F)C%10)c9F)c8c7)cc5)C6)CC4)ccc3C2=O)C(=O)N1 (stereo partly drawn)"
assaymetric = "DC50"
experimentalvalue = "5 to 50 nM"

[[record]]
compound = "O=C1CC[C@H](N2Cc3cc(C[C@@H](O)CN4CCN(c5ccc(-c6cnc7[nH]cc(C(=O)c8c(F)ccc(NS(=O)(=O)N9CC[C@@H](F)C9)c8F)c7c6)cc5)CC4)ccc3C2=O)C(=O)N1"
assaymetric = "DC50"
experimentalvalue = "5 to 50 nM"

[[record]]
compound = "O=C1CC[C@@H](NC(=O)c2cc(C3CCN(CC4CCN(c5ccc(-c6cnc7[nH]cc(C(=O)c8c(F)ccc(NS(=O)(=O)N9CC[C@@H](F)C9)c8F)c7c6)cc5)CC4)CC3)ccc2F)C(=O)N1"
assaymetric = "DC50"
experimentalvalue = "5 to 50 nM"

[[record]]
compound = "O=C1CCC(N2Cc3cc(N4CCC(CN5CC6(CCN(c7ncc(-c8cnc9[nH]cc(C(=O)c%10c(F)ccc(NS(=O)(=O)N%11CC[C@@H](F)C%11)c%10F)c9c8)cn7)C6)C5)CC4)ccc3C2=O)C(=O)N1 (stereo partly drawn)"
assaymetric = "DC50"
experimentalvalue = "< 5 nM"

[[record]]
compound = "O=C1CCC(N2Cc3cc(N4CC5(CN(CCOc6ncc(-c7cnc8[nH]cc(C(=O)c9c(F)ccc(NS(=O)(=O)N%10CC[C@@H](F)C%10)c9F)c8c7)cn6)C5)C4)ccc3C2=O)C(=O)N1 (stereo partly drawn)"
assaymetric = "DC50"
experimentalvalue = "50 to 500 nM"

[[record]]
compound = "O=C1CCC(N2Cc3cc(N4CC5(CN(CCOc6ccc(-c7cnc8[nH]cc(C(=O)c9c(F)ccc(NS(=O)(=O)N%10CC[C@@H](F)C%10)c9F)c8c7)cc6)C5)C4)ccc3C2=O)C(=O)N1 (stereo partly drawn)"
assaymetric = "DC50"
experimentalvalue = "5 to 50 nM"

[[record]]
compound = "O=C1CCC(N2Cc3cc(OC[C@@H]4CCN4c4ccc(-c5cnc6[nH]cc(C(=O)c7c(F)ccc(NS(=O)(=O)N8CC[C@@H](F)C8)c7F)c6c5)cc4)ccc3C2=O)C(=O)N1 (stereo partly drawn)"
assaymetric = "DC50"
experimentalvalue = "> 500 nM"

[[record]]
compound = "O=C1CC[C@@H](N2Cc3cc(CC[C@@H](O)CN4CC5(C4)CN(c4ccc(-c6cnc7[nH]cc(C(=O)c8c(F)ccc(NS(=O)(=O)N9CC[C@@H](F)C9)c8F)c7c6)cc4)C5)ccc3C2=O)C(=O)N1"
assaymetric = "DC50"
experimentalvalue = "5 to 50 nM"

[[record]]
compound = "N#Cc1cc(-c2cnc3[nH]cc(C(=O)c4c(F)ccc(NS(=O)(=O)N5CC[C@@H](F)C5)c4F)c3c2)ccc1N1CCC(CN2CCC(c3ccc4c(c3)CN([C@H]3CCC(=O)NC3=O)C4=O)CC2)CC1"
assaymetric = "DC50"
experimentalvalue = "5 to 50 nM"

[[record]]
compound = "O=C1CCC(N2Cc3cc(N4CC(CN5CCN(Cc6ccc(-c7cnc8[nH]cc(C(=O)c9c(F)ccc(NS(=O)(=O)N%10CC[C@@H](F)C%10)c9F)c8c7)cc6)CC5)C4)ccc3C2=O)C(=O)N1 (stereo partly drawn)"
assaymetric = "DC50"
experimentalvalue = "5 to 50 nM"

[[record]]
compound = "O=C1CC[C@@H](N2Cc3cc(C4CCN(CC5CCN(c6ccc(-c7cnc8[nH]cc(C(=O)c9c(F)ccc(NS(=O)(=O)N%10CC[C@@H](F)C%10)c9F)c8c7)cc6F)CC5)CC4)ccc3C2=O)C(=O)N1"
assaymetric = "DC50"
experimentalvalue = "< 5 nM"

[[record]]
compound = "O=C1CCC(N2Cc3cc(C(O)CN4CCN(c5ccc(-c6cnc7[nH]cc(C(=O)c8c(F)ccc(NS(=O)(=O)N9CC[C@@H](F)C9)c8F)c7c6)cc5)CC4)ccc3C2=O)C(=O)N1 (stereo partly drawn)"
assaymetric = "DC50"
experimentalvalue = "< 5 nM"

[[record]]
compound = "O=C1CCC(N2Cc3cc(C4CCN(CC5CCN(c6cnc(-c7cnc8[nH]cc(C(=O)c9c(F)ccc(NS(=O)(=O)N%10CC[C@@H](F)C%10)c9F)c8c7)nc6)CC5)CC4)ccc3C2=O)C(=O)N1 (stereo partly drawn)"
assaymetric = "DC50"
experimentalvalue = "5 to 50 nM"

[[record]]
compound = "C[C@H]1CC[C@H](C)N1S(=O)(=O)Nc1ccc(F)c(C(=O)c2c[nH]c3ncc(-c4ccc(N5CCC(CN6CCC(c7ccc8c(c7)CN([C@H]7CCC(=O)NC7=O)C8=O)CC6)CC5)cc4)cc23)c1F"
assaymetric = "DC50"
experimentalvalue = "5 to 50 nM"

[[record]]
compound = "O=C1CCC(N2Cc3cc(C4CCN(CCc5ccc(-c6cnc7[nH]cc(C(=O)c8c(F)ccc(NS(=O)(=O)N9CC[C@@H](F)C9)c8F)c7c6)cc5)[C@H](CO)C4)ccc3C2=O)C(=O)N1 (stereo partly drawn)"
assaymetric = "DC50"
experimentalvalue = "50 to 500 nM"

[[record]]
compound = "O=C1CCN(c2ccc(N3CCC(CN4CC5(C4)CN(c4ccc(-c6cnc7[nH]cc(C(=O)c8c(F)ccc(NS(=O)(=O)N9CC[C@@H](F)C9)c8F)c7c6)cc4)C5)CC3)cc2F)C(=O)N1"
assaymetric = "DC50"
experimentalvalue = "5 to 50 nM"

